- Tested on: 616215-338-R-J1-PDC complex spheroid growth, % test/control
- EXPERIMENT: Anticancer human tumor 616215-338-R-J1-PDC patient-derived colon adenocarcinoma cell line growth inhibition [Asc]
- CONDITION_LABEL: second compound 0.1 µM; first compound 0.316 µM; stronger effect = lower value
- Text: Multicellular complex tumor spheroid response to apoptosis pathway targeting inhibitors Alrizomadlin, Pelcitoclax, and Dasminapant in combination with a variety of drugs and investigational agents in selected tumor cell lines […] Compounds. […] If the clinical Cmax for an agent had not been determined, the highest concentration tested was 10 microM. […]
MEASURED_ATTRIBUTE: viability, T/C (%)
Quick note: give the figure in %, leave out the unit.

These recorded examples may help you get a feel for the data.
C=CC(=O)N1CCN(c2nc(=O)n(-c3c(C)ccnc3C(C)C)c3nc(-c4c(O)cccc4F)c(F)cc23)C(C)C1 (stereo unspecified) + Cc1c(S(C)(=O)=O)c(-c2cc(F)cc(N3CCN(c4ccc(NS(=O)(=O)c5ccc(NC(CCN6CCC(C(=O)OCCCP(=O)(O)O)CC6)CSc6ccccc6)c(S(=O)(=O)C(F)(F)F)c5)cc4)CC3)c2)c(-c2ccc(Cl)cc2)n1C(C)C: 90.4
CNC(C)C(=O)NC1CN(S(=O)(=O)c2cccc(S(=O)(=O)N3CCC4CCC(C(=O)NC(c5ccccc5)c5ccccc5)N4C(=O)C(NC(=O)C(C)NC)C3)c2)CCC2CCC(C(=O)NC(c3ccccc3)c3ccccc3)N2C1=O (stereo unspecified) + Cc1c(S(C)(=O)=O)c(-c2cc(F)cc(N3CCN(c4ccc(NS(=O)(=O)c5ccc(NC(CCN6CCC(C(=O)OCCCP(=O)(O)O)CC6)CSc6ccccc6)c(S(=O)(=O)C(F)(F)F)c5)cc4)CC3)c2)c(-c2ccc(Cl)cc2)n1C(C)C: 100
O=C(c1cc(Cc2n[nH]c(=O)c3ccccc23)ccc1F)N1CCN(C(=O)C2CC2)CC1 + Cc1c(S(C)(=O)=O)c(-c2cc(F)cc(N3CCN(c4ccc(NS(=O)(=O)c5ccc(NC(CCN6CCC(C(=O)OCCCP(=O)(O)O)CC6)CSc6ccccc6)c(S(=O)(=O)C(F)(F)F)c5)cc4)CC3)c2)c(-c2ccc(Cl)cc2)n1C(C)C: 92.5
COc1c(OCCCN2CCOCC2)ccc2c3n(c(=NC(=O)c4cnc(N)nc4)nc12)CCN3 + Cc1c(S(C)(=O)=O)c(-c2cc(F)cc(N3CCN(c4ccc(NS(=O)(=O)c5ccc(NC(CCN6CCC(C(=O)OCCCP(=O)(O)O)CC6)CSc6ccccc6)c(S(=O)(=O)C(F)(F)F)c5)cc4)CC3)c2)c(-c2ccc(Cl)cc2)n1C(C)C: 35.5
O=C(c1cc(Cc2n[nH]c(=O)c3ccccc23)ccc1F)N1CCN(C(=O)C2CC2)CC1 + CNC(C)C(=O)NC1CN(S(=O)(=O)c2cccc(S(=O)(=O)N3CCC4CCC(C(=O)NC(c5ccccc5)c5ccccc5)N4C(=O)C(NC(=O)C(C)NC)C3)c2)CCC2CCC(C(=O)NC(c3ccccc3)c3ccccc3)N2C1=O: 94.2

(Q) So what viability, T/C did COc1c(OCCCN2CCOCC2)ccc2c3n(c(=NC(=O)c4cnc(N)nc4)nc12)CCN3 + CNC(C)C(=O)NC1CN(S(=O)(=O)c2cccc(S(=O)(=O)N3CCC4CCC(C(=O)NC(c5ccccc5)c5ccccc5)N4C(=O)C(NC(=O)C(C)NC)C3)c2)CCC2CCC(C(=O)NC(c3ccccc3)c3ccccc3)N2C1=O get with 616215-338-R-J1-PDC complex spheroid growth, % test/control?
(A) 14.1

====

- Tested on: 616215-338-R-J1-PDC complex spheroid growth, % test/control
- EXPERIMENT: Anticancer human tumor 616215-338-R-J1-PDC cell line growth inhibition [Asc];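 also: spheroids exposed to agents for seven days before readout; 100% = DMSO vehicle control viability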
- CONDITION_LABEL: second compound 0.3 µM; first compound 0.01 µM; stronger effect = lower value
MEASURED_ATTRIBUTE: viability, T/C

NC1CCC(NC2CC2c2ccccc2)CC1 (stereo unspecified) + CCN1C(C(=O)NC23CCC(C(=O)O)(CC2)CC3)C(c2cccc(Cl)c2F)C2(C(=O)Nc3cc(Cl)ccc32)C12CCCCC2: 65.9%
CNC(C)C(=O)NC1CN(S(=O)(=O)c2cccc(S(=O)(=O)N3CCC4CCC(C(=O)NC(c5ccccc5)c5ccccc5)N4C(=O)C(NC(=O)C(C)NC)C3)c2)CCC2CCC(C(=O)NC(c3ccccc3)c3ccccc3)N2C1=O (stereo unspecified) + CCN1C(C(=O)NC23CCC(C(=O)O)(CC2)CC3)C(c2cccc(Cl)c2F)C2(C(=O)Nc3cc(Cl)ccc32)C12CCCCC2: 58.8%
O=C(c1ccc(F)c(F)c1Nc1ccc(I)cc1F)N1CC(O)([C@@H]2CCCCN2)C1 + CCN1C(C(=O)NC23CCC(C(=O)O)(CC2)CC3)C(c2cccc(Cl)c2F)C2(C(=O)Nc3cc(Cl)ccc32)C12CCCCC2: 57.7%
Cn1ncnc1[C@H]1c2n[nH]c(=O)c3cc(F)cc(c23)N[C@@H]1c1ccc(F)cc1 + CCN1C(C(=O)NC23CCC(C(=O)O)(CC2)CC3)C(c2cccc(Cl)c2F)C2(C(=O)Nc3cc(Cl)ccc32)C12CCCCC2: 56.7%
COc1c(OCCCN2CCOCC2)ccc2c3n(c(=NC(=O)c4cnc(N)nc4)nc12)CCN3 + CCN1C(C(=O)NC23CCC(C(=O)O)(CC2)CC3)C(c2cccc(Cl)c2F)C2(C(=O)Nc3cc(Cl)ccc32)C12CCCCC2: 59.2%

Query compound follows.
(Q) Can you look up the measured viability, T/C of CCN1CCN(Cc2ccc(Nc3ncc(F)c(-c4cc(F)c5nc(C)n(C(C)C)c5c4)n3)nc2)CC1 + CCN1C(C(=O)NC23CCC(C(=O)O)(CC2)CC3)C(c2cccc(Cl)c2F)C2(C(=O)Nc3cc(Cl)ccc32)C12CCCCC2 for me?
(A) 67%

====

- Tested on: 616215-338-R-J1-PDC complex spheroid growth, % test/control
- EXPERIMENT: Anticancer human tumor 616215-338-R-J1-PDC cell line growth inhibition [Asc];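 also: spheroids exposed to agents for seven days before readout; 100% = DMSO vehicle control viability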
- CONDITION_LABEL: second compound 0.949 µM; first compound 0.0316 µM; stronger effect = lower value
MEASURED_ATTRIBUTE: viability, T/C (%)
Quick note: give the figure in %, leave out the unit.

C=CC(=O)N1CCN(c2nc(=O)n(-c3c(C)ccnc3C(C)C)c3nc(-c4c(O)cccc4F)c(F)cc23)C(C)C1 (stereo not given) + CCN1C(C(=O)NC23CCC(C(=O)O)(CC2)CC3)C(c2cccc(Cl)c2F)C2(C(=O)Nc3cc(Cl)ccc32)C12CCCCC2: 61.7

(Q) Can you look up the measured viability, T/C of NC1CCC(NC2CC2c2ccccc2)CC1 (stereo not given) + CCN1C(C(=O)NC23CCC(C(=O)O)(CC2)CC3)C(c2cccc(Cl)c2F)C2(C(=O)Nc3cc(Cl)ccc32)C12CCCCC2 for me?
(A) 70.1

(Q) Can you look up the measured viability, T/C of C#Cc1c(F)ccc2cc(O)cc(-c3ncc4c(N5CC6CCC(C5)N6)nc(OCC56CCCN5CC(F)C6)nc4c3F)c12 (stereo not given) + CCN1C(C(=O)NC23CCC(C(=O)O)(CC2)CC3)C(c2cccc(Cl)c2F)C2(C(=O)Nc3cc(Cl)ccc32)C12CCCCC2 for me?
(A) 63.6

(Q) Can you look up the measured viability, T/C of CCN1CCN(Cc2ccc(Nc3ncc(F)c(-c4cc(F)c5nc(C)n(C(C)C)c5c4)n3)nc2)CC1 + CCN1C(C(=O)NC23CCC(C(=O)O)(CC2)CC3)C(c2cccc(Cl)c2F)C2(C(=O)Nc3cc(Cl)ccc32)C12CCCCC2 for me?
(A) 72.1

(Q) Can you look up the measured viability, T/C of Cn1ncnc1[C@H]1c2n[nH]c(=O)c3cc(F)cc(c23)N[C@@H]1c1ccc(F)cc1 + CCN1C(C(=O)NC23CCC(C(=O)O)(CC2)CC3)C(c2cccc(Cl)c2F)C2(C(=O)Nc3cc(Cl)ccc32)C12CCCCC2 for me?
(A) 57.2

====

- System: 616215-338-R-J1-PDC complex spheroid growth, % test/control
- EXPERIMENT: Anticancer human tumor 616215-338-R-J1-PDC cell line growth inhibition [Asc];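 also: spheroids exposed to agents for seven days before readout; 100% = DMSO vehicle control viability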
- CONDITION_LABEL: second compound 0.949 µM; first compound 3.16 µM; stronger effect = lower value
// viability, T/C lookup, one value per entry
Quick note: give the figure in %, leave out the unit.

These recorded examples may help you get a feel for the data.
C#Cc1c(F)ccc2cc(O)cc(-c3ncc4c(N5CC6CCC(C5)N6)nc(OCC56CCCN5CC(F)C6)nc4c3F)c12 (centres undefined) + CCN1C(C(=O)NC23CCC(C(=O)O)(CC2)CC3)C(c2cccc(Cl)c2F)C2(C(=O)Nc3cc(Cl)ccc32)C12CCCCC2: 46.5
O=C(c1cc(Cc2n[nH]c(=O)c3ccccc23)ccc1F)N1CCN(C(=O)C2CC2)CC1 + CCN1C(C(=O)NC23CCC(C(=O)O)(CC2)CC3)C(c2cccc(Cl)c2F)C2(C(=O)Nc3cc(Cl)ccc32)C12CCCCC2: 67
C=C(F)C(=O)N1CCN(c2nc(OCC3CCCN3C)nc3c2CCN(c2cccc4cccc(Cl)c24)C3)CC1CC#N (centres undefined) + CCN1C(C(=O)NC23CCC(C(=O)O)(CC2)CC3)C(c2cccc(Cl)c2F)C2(C(=O)Nc3cc(Cl)ccc32)C12CCCCC2: 59.9

(Q) Can you look up the measured viability, T/C of C=CC(=O)N1CCN(c2nc(=O)n(-c3c(C)ccnc3C(C)C)c3nc(-c4c(O)cccc4F)c(F)cc23)C(C)C1 (centres undefined) + CCN1C(C(=O)NC23CCC(C(=O)O)(CC2)CC3)C(c2cccc(Cl)c2F)C2(C(=O)Nc3cc(Cl)ccc32)C12CCCCC2 for me?
(A) 60
